All figures here come from ChEMBL document CHEMBL1126879.

- System tested: Type-1 angiotensin II receptor B (Rattus norvegicus, UniProt P29089)
- Sequence (P29089 whole entry): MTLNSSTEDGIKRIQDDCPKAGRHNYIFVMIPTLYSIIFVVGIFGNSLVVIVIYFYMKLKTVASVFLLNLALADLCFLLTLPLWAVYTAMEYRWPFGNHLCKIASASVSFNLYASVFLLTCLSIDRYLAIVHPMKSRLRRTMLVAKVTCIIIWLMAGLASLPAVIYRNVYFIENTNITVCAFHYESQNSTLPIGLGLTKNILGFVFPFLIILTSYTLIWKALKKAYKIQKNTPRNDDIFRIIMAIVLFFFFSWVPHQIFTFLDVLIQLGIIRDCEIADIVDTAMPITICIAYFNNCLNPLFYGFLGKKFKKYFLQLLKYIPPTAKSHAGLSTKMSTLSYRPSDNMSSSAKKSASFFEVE
- Method: Binding affinity for Angiotensin II receptor, type 1 measured by ability to displace [125I]- A II from its specific binding site in rat liver membrane
pIC50: −log10 of the molar value.
Readout type: pIC50

a: CCCCC1=NC2(CCN(Cc3ccccc3)CC2)C(=O)N1Cc1ccc(-c2ccccc2C(=O)O)cc1
b: CCCCC1=NC2(C(=O)N1Cc1ccc(-c3ccccc3C(=O)O)cc1)C1CC3CC(C1)CC2C3 (stereo not drawn)
Q: Hi there! Just curious which has the higher pIC50 between a and b . Please indicate the selected item by its label.
Result: b
